# assay-details: Pharmacokinetics in mice (plasma, UPLC/MS/MS)
# Type: in vivo
# reported-conditions: female, NMRI, mouse, po, p.os 50 mg/kg
observed-property: Cmax at 6 h

INSERT INTO assay_data (molecule, observed_property, val) VALUES
  ('CCCN1CCCCCc2cccc(c2)C[C@@H]([C@H](O)CNC(C)(C)c2cccc(OC)c2)NC(=O)c2cccc(c2)C1=O [7k]', 'Cmax at 6 h', '64 ng/mL');

----------
# assay-details: Liver microsomal metabolic stability
# Type: in vitro ADME, mouse
# reported-conditions: pooled liver microsomes, pH 7.4; mouse liver microsomes, 5 μM
observed-property: half-life at 1 h, 5 μM (min)

INSERT INTO results (smiles_string, observed_property, unit_tag, val) VALUES
  ('CCCN1CCCCCOc2cccc(c2)C[C@@H]([C@H](O)CNC(C)(C)c2cccc(OC)c2)NC(=O)c2cccc(c2)C1=O', 'half-life at 1 h, 5 μM', 'min', 7.64),
  ('CCCN1CCOc2cccc(c2)C[C@@H]([C@H](O)CNC(C)(C)c2cccc(OC)c2)NC(=O)c2cccc(c2)C1=O', 'half-life at 1 h, 5 μM', 'min', 13.9),
  ('COc1cccc(C(C)(C)NC[C@@H](O)[C@@H]2Cc3cccc(c3)OCCCCN(C)C(=O)c3cccc(c3)C(=O)N2)c1', 'half-life at 1 h, 5 μM', 'min', 16.9),
  ('COc1cccc(C(C)(C)NC[C@@H](O)[C@@H]2Cc3cccc(c3)OCCCCN(CC(C)(C)C)C(=O)c3cccc(c3)C(=O)N2)c1', 'half-life at 1 h, 5 μM', 'min', 13.7);

----------
# assay-details: Liver microsomal metabolic stability
# Format: in vitro ADME, mouse
# reported-conditions: pooled liver microsomes, pH 7.4; mouse liver microsomes, 5 μM
observed-property: half-life at 5 μM

INSERT INTO measurements (smiles_string, val) VALUES
  ('COc1cccc(C(C)(C)NC[C@@H](O)[C@@H]2Cc3cccc(c3)OCCCCN(CCN(C)C)C(=O)c3cccc(c3)C(=O)N2)c1', '> 2 h');

----------
# assay-details: Pharmacokinetics in mice (plasma, UPLC/MS/MS)
# Type: in vivo
# reported-conditions: female, NMRI, mouse, po, p.os 50 mg/kg, read-out: AUC0-inf_obs
observed-property: AUC(0-inf) at 6 h (ng·h/mL)

INSERT INTO assay_data (smiles_string, observed_property, val) VALUES
  ('CCCN1CCCCCc2cccc(c2)C[C@@H]([C@H](O)CNC(C)(C)c2cccc(OC)c2)NC(=O)c2cccc(c2)C1=O', 'AUC(0-inf) at 6 h', 222);

// provenance: paper PMC10424242
